Could you please report measured Emax for the items listed next?
target: human CB2 receptor (hCB2) (Homo sapiens); assay: cAMP assay (LANCE TR-FRET) in CHO-K1 cells expressing hCB2; format: cell-based; settings: CHO-K1; intrinsic activity: percent maximal activation compared to full activation by CP55,940 (1 μM = 100%); read-out: hCB2 % Max Range
Sequence (P34972 whole entry): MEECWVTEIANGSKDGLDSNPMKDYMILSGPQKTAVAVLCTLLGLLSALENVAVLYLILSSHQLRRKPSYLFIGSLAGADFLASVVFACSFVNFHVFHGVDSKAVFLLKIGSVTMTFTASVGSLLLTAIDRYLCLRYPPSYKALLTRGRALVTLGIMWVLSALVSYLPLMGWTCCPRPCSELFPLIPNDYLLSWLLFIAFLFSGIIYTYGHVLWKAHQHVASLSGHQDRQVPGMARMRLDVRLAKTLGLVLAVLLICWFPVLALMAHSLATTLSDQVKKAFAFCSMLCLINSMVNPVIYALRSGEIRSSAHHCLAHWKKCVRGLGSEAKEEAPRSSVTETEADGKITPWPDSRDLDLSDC
Number only, in %; omit the unit.

I have this molecule here, O=C(CC1CCCO1)Nc1ccc2c(c1)C1C3CCC(C3)C1C(c1ccccc1)N2 (stereo not drawn) , and I need its recorded Emax.
92

I have this molecule here, Cn1nccc1C1Nc2ccc(S(N)(=O)=O)cc2C2C3CCC(C3)C12 (stereo not drawn) , and I need its recorded Emax.
82.7

I have this molecule here, O=S(=O)(c1ccc2c(c1)C1C3CCC(C3)C1C(c1ccccc1)N2)N1CCCCC1 (stereo not drawn) , and I need its recorded Emax.
101

I have this molecule here, CN(C)S(=O)(=O)c1ccc2c(c1)C1C3CCC(C3)C1C(c1ccnn1C)N2 (stereo not drawn) , and I need its recorded Emax.
94.9

I have this molecule here, CC(C)S(=O)(=O)Nc1ccc2c(c1)C1C3CCC(C3)C1C(c1ccccc1)N2 (stereo not drawn) , and I need its recorded Emax.
96.8

I have this molecule here, CCCNC(=S)Nc1ccc2c(c1)C1C3CCC(C3)C1C(c1ccccc1)N2 (stereo not drawn) , and I need its recorded Emax.
76
